Source listed as ChEMBL document CHEMBL1201862.

SUBJECT_OF_TEST: Paired box protein Pax-8 (Homo sapiens)
Sequence (Q06710 whole entry): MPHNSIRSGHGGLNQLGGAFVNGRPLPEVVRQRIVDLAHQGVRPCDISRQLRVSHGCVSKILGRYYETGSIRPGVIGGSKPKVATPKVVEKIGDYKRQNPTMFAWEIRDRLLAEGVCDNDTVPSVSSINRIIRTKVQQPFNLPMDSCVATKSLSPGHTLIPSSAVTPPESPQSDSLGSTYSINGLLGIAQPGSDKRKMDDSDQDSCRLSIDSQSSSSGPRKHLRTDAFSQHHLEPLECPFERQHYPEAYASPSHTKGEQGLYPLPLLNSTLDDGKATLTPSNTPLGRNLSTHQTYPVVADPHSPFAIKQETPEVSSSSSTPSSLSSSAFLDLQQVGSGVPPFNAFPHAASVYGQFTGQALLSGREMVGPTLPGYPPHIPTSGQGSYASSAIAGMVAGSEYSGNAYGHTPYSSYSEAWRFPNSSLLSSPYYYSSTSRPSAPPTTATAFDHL
PROCEDURE_SUMMARY: PAX8 transcriptional activity inhibition in RMG-I – RMG-I cells, luciferase, cherry-pick, dose response (AID 687027);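 also: luciferase reporter driven by Pax8 target thyroperoxidase promoter measured by SteadyGlo luminescence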
Format: functional, cell-based
The source made the active and inactive calls.
PROPERTY_NAME: AC50

MOLECULE: CC(/C=C1\SC(=O)N(CC(=O)Nc2ccc(O)cc2)C1=O)=C\c1ccccc1
SUBJECT_OF_TEST: Paired box protein Pax-8 (Homo sapiens)
PROPERTY_NAME: AC50
EXPERIMENTAL_VALUE: 64.3 µM (active)
//
MOLECULE: CO[C@H]1CN(C)C(=O)c2cc(NC(=O)c3ccc(-c4ccccc4)cc3)ccc2OC[C@@H](C)NC[C@@H]1C
SUBJECT_OF_TEST: Paired box protein Pax-8 (Homo sapiens)
PROPERTY_NAME: AC50
EXPERIMENTAL_VALUE: 22.6 µM (active)
//
MOLECULE: C[C@@H]1CCCCO[C@H](CN(C)Cc2ccccc2)[C@H](C)CN([C@H](C)CO)C(=O)c2cc(NC(=O)Nc3ccc(C(F)(F)F)cc3)ccc2O1
SUBJECT_OF_TEST: Paired box protein Pax-8 (Homo sapiens)
PROPERTY_NAME: AC50
EXPERIMENTAL_VALUE: 5.05 µM (active)
//
MOLECULE: C#CCN(C[C@@H]1[C@@H](OC(=O)NCCCCCC)[C@@H](OC(=O)NCCCCCC)Cn2c(=O)ccc(=O)n21)S(=O)(=O)c1ccc(C)cc1
SUBJECT_OF_TEST: Paired box protein Pax-8 (Homo sapiens)
PROPERTY_NAME: AC50
EXPERIMENTAL_VALUE: 4.18 µM (active)
//
MOLECULE: O=C(Nc1ccc(F)cc1)N[C@H]1CC[C@H](CCNC(=O)c2cc(Cl)cc(Cl)c2)O[C@H]1CO
SUBJECT_OF_TEST: Paired box protein Pax-8 (Homo sapiens)
PROPERTY_NAME: AC50
EXPERIMENTAL_VALUE: 8.97 µM (active)
//
MOLECULE: C[C@@H]1CCCCO[C@@H](CN(C)Cc2ccc(Cl)c(Cl)c2)[C@H](C)CN([C@H](C)CO)C(=O)c2cc(NC(=O)Nc3ccc(C(F)(F)F)cc3)ccc2O1
SUBJECT_OF_TEST: Paired box protein Pax-8 (Homo sapiens)
PROPERTY_NAME: AC50
EXPERIMENTAL_VALUE: 2.39 µM (active)
//
MOLECULE: Cc1ccc(S(=O)(=O)N(C)C[C@H]2Oc3ccc(NC(=O)Cc4ccccc4)cc3C(=O)N([C@H](C)CO)C[C@@H]2C)cc1
SUBJECT_OF_TEST: Paired box protein Pax-8 (Homo sapiens)
PROPERTY_NAME: AC50
EXPERIMENTAL_VALUE: 29.8 µM (active)
//
MOLECULE: N#Cc1ccc2nc(-c3ccc(CN4CCC(n5c(O)nc6ccccc65)CC4)cc3)c(-c3ccccc3)nc2c1
SUBJECT_OF_TEST: Paired box protein Pax-8 (Homo sapiens)
PROPERTY_NAME: AC50
EXPERIMENTAL_VALUE: 8.95 µM (active)
//
MOLECULE: CCCCCCN(C(=O)CCCN1C(=O)NC(c2ccc(-c3ccccc3)cc2)C(C(=O)OCc2ccccc2)=C1C)C(C)C(=O)NCCCC (centres undefined)
SUBJECT_OF_TEST: Paired box protein Pax-8 (Homo sapiens)
PROPERTY_NAME: AC50
EXPERIMENTAL_VALUE: 12.2 µM (active)
//
MOLECULE: CC(C)(O)/C=C/C(=O)C(C)(O)C1C(O)CC2(C)C3CC=C4C(C=C(O)C(=O)C4(C)C)C3(C)C(=O)CC12C (centres undefined)
SUBJECT_OF_TEST: Paired box protein Pax-8 (Homo sapiens)
PROPERTY_NAME: AC50
EXPERIMENTAL_VALUE: < 0.26 µM (active)
//
MOLECULE: C[C@H]1CCCCO[C@H](CN(C)C(=O)C2CCCCC2)[C@@H](C)CN([C@@H](C)CO)C(=O)c2cc(NC(=O)Nc3ccc(F)cc3)ccc2O1
SUBJECT_OF_TEST: Paired box protein Pax-8 (Homo sapiens)
PROPERTY_NAME: AC50
EXPERIMENTAL_VALUE: 8.1 µM (active)
//
MOLECULE: C[C@H](CO)N1C[C@H](C)[C@@H](CN(C)S(=O)(=O)c2ccccc2)OCCCC[C@H](C)Oc2ccc(NS(=O)(=O)c3ccc(Cl)cc3)cc2C1=O
SUBJECT_OF_TEST: Paired box protein Pax-8 (Homo sapiens)
PROPERTY_NAME: AC50
EXPERIMENTAL_VALUE: 5.23 µM (active)
//
MOLECULE: CC(=O)N1CCc2c(sc(NC(=O)c3ccc([N+](=O)[O-])o3)c2C#N)C1
SUBJECT_OF_TEST: Paired box protein Pax-8 (Homo sapiens)
PROPERTY_NAME: AC50
EXPERIMENTAL_VALUE: 2.71 µM (active)
//
MOLECULE: C[C@@H]1CN([C@@H](C)CO)C(=O)c2ccccc2-c2ccccc2CO[C@H]1CN(C)Cc1ccccc1C(F)(F)F
SUBJECT_OF_TEST: Paired box protein Pax-8 (Homo sapiens)
PROPERTY_NAME: AC50
EXPERIMENTAL_VALUE: 12.3 µM (active)

* * *

Overview of recorded IC50 for various compounds
SUBJECT_OF_TEST: Nonstructural protein 1 (Influenza A virus, UniProt Q194T2)
Sequence (Q194T2 whole entry): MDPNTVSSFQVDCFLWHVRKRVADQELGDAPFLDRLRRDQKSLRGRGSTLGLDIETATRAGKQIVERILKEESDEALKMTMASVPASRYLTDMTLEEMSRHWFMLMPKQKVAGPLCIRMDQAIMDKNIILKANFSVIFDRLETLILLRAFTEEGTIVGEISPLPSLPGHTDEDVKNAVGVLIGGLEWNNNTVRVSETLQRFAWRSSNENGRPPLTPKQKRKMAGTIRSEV
Assay type: functional, Influenza A virus (A/California/07/2009(H1N1))
The source made the active and inactive calls.

COMPOUND_SMILES: CC1=NN(c2ccccc2)C(=O)/C1=C\C=C1/N(C)c2ccccc2C1(C)C
SUBJECT_OF_TEST: Nonstructural protein 1 (Influenza A virus, UniProt Q194T2)
IC50: 11.8 µM (active)
--
COMPOUND_SMILES: CCn1c(C)nc2cc(C(=O)N/N=C/c3ccc(O)c(O)c3O)ccc21
SUBJECT_OF_TEST: Nonstructural protein 1 (Influenza A virus, UniProt Q194T2)
IC50: 16.6 µM (active)
--
COMPOUND_SMILES: CC1(C)c2ssc(=S)c2-c2ccccc2N1C(=O)CSC1=NCCS1
SUBJECT_OF_TEST: Nonstructural protein 1 (Influenza A virus, UniProt Q194T2)
IC50: 27.7 µM (active)
--
COMPOUND_SMILES: COc1cc2c(ccc3c4cc(OC)c(OC)cc4c[n+](C)c23)cc1O
SUBJECT_OF_TEST: Nonstructural protein 1 (Influenza A virus, UniProt Q194T2)
IC50: > 100 µM (active)
--
COMPOUND_SMILES: c1ccc(-c2cn(C[C@H]3CC[C@@H]([C@@H]4CC[C@H](Cn5cc(-c6ccccn6)nn5)O4)O3)nn2)nc1
SUBJECT_OF_TEST: Nonstructural protein 1 (Influenza A virus, UniProt Q194T2)
IC50: 5.72 µM (active)
--
COMPOUND_SMILES: Cc1ccc(OCC(=O)N/N=C/c2cccc3cccnc23)cc1
SUBJECT_OF_TEST: Nonstructural protein 1 (Influenza A virus, UniProt Q194T2)
IC50: 25.6 µM (active)

* * *

SUBJECT_OF_TEST: Orexin receptor type 2 (Homo sapiens)
Sequence (O43614 whole entry): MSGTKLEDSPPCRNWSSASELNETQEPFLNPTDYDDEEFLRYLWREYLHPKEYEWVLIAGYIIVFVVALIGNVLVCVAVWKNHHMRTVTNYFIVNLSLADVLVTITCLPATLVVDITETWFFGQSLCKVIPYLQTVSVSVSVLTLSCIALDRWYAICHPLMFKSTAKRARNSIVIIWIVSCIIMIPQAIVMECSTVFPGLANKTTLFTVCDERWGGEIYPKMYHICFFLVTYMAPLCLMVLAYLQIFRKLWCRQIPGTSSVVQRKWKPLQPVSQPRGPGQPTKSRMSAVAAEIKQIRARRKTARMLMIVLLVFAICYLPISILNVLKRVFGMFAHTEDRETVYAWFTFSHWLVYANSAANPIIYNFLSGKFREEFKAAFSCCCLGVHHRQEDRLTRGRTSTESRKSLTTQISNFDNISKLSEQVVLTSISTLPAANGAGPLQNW
PROCEDURE_SUMMARY: Counterscreen assay for antagonists of the orexin 1 receptor (OX1R; HCRTR1): Fluorescence-based cell-based dose response assay for antagonists of the orexin 2 receptor (OX2R; HCRTR2), run by assay provider.
Type: functional
Active and inactive are the calls of the source.
Outcomes: label 1 (active), label 0 (inactive)

COMPOUND_SMILES: CCc1c(C)sc(N=C(S)Nc2nc(C)cc(C)n2)c1C(=O)OC
CATEGORY_LABEL: label 0
//
COMPOUND_SMILES: CSc1nc2ccc3nc(NC(=O)c4cccs4)sc3c2s1
CATEGORY_LABEL: label 0
//
COMPOUND_SMILES: N#CC(=C1SC=CS1)c1nc(-c2ccccc2)cs1
CATEGORY_LABEL: label 1
//
COMPOUND_SMILES: CCn1c(SCC(=O)Nc2ccc3c(c2)c2ccccc2n3CC)nnc1-c1cnccn1
CATEGORY_LABEL: label 0

* * *

Overview of recorded AC50 for various compounds
PROCEDURE_SUMMARY: non-specific 3'UTR reporter inhibition in Clone20-Shn3RL – cell-based, Renilla luciferase, cherry-picked, counter-screen for Shn3 inhibitor project, dose response (AID 624133)
Type: functional
Active and inactive are the calls of the source.

COMPOUND: O=C1N/C(=C/c2ccc(N3CCOCC3)o2)C(=O)N1c1ccccc1
AC50: 5.03 µM (active)
--
COMPOUND: COc1cc(C2c3cc4c(cc3C(OC3OC5COC(c6cccs6)OC5C(O)C3O)C3COC(=O)C23)OCO4)cc(OC)c1O (centres undefined)
AC50: 1.28 µM (active)
--
COMPOUND: CCCOc1ccccc1C1CC(=O)Nc2cc3c(cc21)OCO3 (centres undefined)
AC50: 15.3 µM (active)
--
COMPOUND: Cc1nc2ccccc2n1Cc1ccc(Cl)cc1 [CHLORMIDAZOLE]
AC50: 28.2 µM (active)
